molecular target: DP receptor (Homo sapiens); construct: endogenous in cells; host or cells: washed platelets from peripheral blood of a healthy volunteer; experiment: cAMP assay with washed platelet (DP inhibitory activity in vitro); assay type: cell-based; details: read-out: IC50 (50% DP-inhibitory concentration in the cAMP assay); washed human platelets, 100 nM PGD2, cAMP by HTRF
RECORDED_ENDPOINT: IC50 (nM)
# number only, unit nM dropped from output

Record CC(C)Oc1ccc(S(=O)(=O)N2CCC(c3ccc(Cl)c(OCC(=O)O)c3)CC2)cc1 / DP receptor (Homo sapiens), IC50 recorded as 160

Note to self: IC50 of CC(C)Oc1ccc(S(=O)(=O)N2CCN(c3ccc(NC(=O)c4ccco4)c(OCC(=O)O)c3)CC2)cc1 with DP receptor (Homo sapiens) was 510

DP receptor (Homo sapiens) assay, compound CC(C)Oc1ccc(S(=O)(=O)N2CCN(c3ccc(Br)c(OCC(=O)O)c3)CC2)cc1 , recorded IC50 = 300

Value (IC50, DP receptor (Homo sapiens)) for record CC(C)Oc1ccc(S(=O)(=O)N2CCN(c3ccc(-c4nncs4)c(OCC(=O)O)c3)CC2)cc1 = 230

* * *

Molecular target: DP receptor (Homo sapiens)
Construct: endogenous in cells
Sequence (Q13258 1-359): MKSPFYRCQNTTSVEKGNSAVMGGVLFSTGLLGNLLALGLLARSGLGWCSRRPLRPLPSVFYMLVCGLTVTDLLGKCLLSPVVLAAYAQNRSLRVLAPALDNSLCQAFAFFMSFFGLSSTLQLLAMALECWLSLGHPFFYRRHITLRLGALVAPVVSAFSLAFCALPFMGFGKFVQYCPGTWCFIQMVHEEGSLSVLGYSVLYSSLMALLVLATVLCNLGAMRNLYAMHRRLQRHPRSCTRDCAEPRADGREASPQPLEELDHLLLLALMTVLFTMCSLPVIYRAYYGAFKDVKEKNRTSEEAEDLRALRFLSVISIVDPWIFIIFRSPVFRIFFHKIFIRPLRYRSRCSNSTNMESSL
Assay: Receptor binding assay, [3H]-PGD2, platelet membrane
Details: [3H]-PGD2, human platelet membrane
For each entry below, report its pKi value.
Notebook: values listed as pKi are -log10 of the concentration (mol/L).

pKi reading for CC(C)Oc1ccc(S(=O)(=O)N2CCN(c3ccc(-c4cnco4)c(OCC(=O)O)c3)CC2)cc1 : 6.48

Lab note: measured pKi of CC(C)Oc1ccc(S(=O)(=O)N2CCN(c3ccc(C(=O)Nc4ccccc4)c(OCC(=O)O)c3)CC2)cc1 was 5.33

Data point: CC(C)Sc1ccc(S(=O)(=O)N2CCN(c3ccc(Cl)c(OCC(=O)O)c3)CC2)cc1 ; pKi = 5.51

Recorded result, Cc1cc(C(=O)Nc2ccc(N3CCN(S(=O)(=O)c4ccc(OC(C)C)cc4)CC3)cc2OCC(=O)O)no1 , pKi: 5.59

Reported pKi for CC(C)Oc1ccc(S(=O)(=O)N2CCN(c3ccc(C(=O)NCC4CC4)c(OCC(=O)O)c3)CC2)cc1 was 4.80

For CC(C)Oc1ccc(S(=O)(=O)N2CCN(c3ccc(C(=O)NCc4cccs4)c(OCC(=O)O)c3)CC2)cc1 the molecule record lists pKi as 4.96

CC(C)Oc1ccc(S(=O)(=O)N2CCN(c3ccc(-c4ccco4)c(OCC(=O)O)c3)CC2)cc1 yielded pKi of 4.80

Sample CC(C)Oc1ccc(S(=O)(=O)N2CCN(c3ccc(-c4nncs4)c(OCC(=O)O)c3)CC2)cc1 ; pKi observed: 5.82
